System: KB
PROTOCOL: Cytotoxicity against human KB cells after 72 hrs
Format: cell-based
RUN CONDITIONS: human, kb
*1 amine or outer side, *2 acyl side, *3 side chain or, on linkers, in order; H or OH if unused. Where a SMILES comes first, the peptide text is derived from it. Bridges are numbered along the chain shown (N, C = ends). [ ]: non-standard residue; d: D form. The star is where a group is joined. ξ: configuration not given here. X1 = CC(=O)O[C@@]12COC1C[C@H](O)[C@@]1(C)C(=O)[C@H](O)C3=C(C)[C@@H](OC(=O)[C@H](O)[C@@H](NC(=O)[*:1])c4ccccc4)C[C@@](O)([C@@H](O[*:2])C21)C3(C)C; ξD = NC(CC(=O)O)C(=O)O; OtBu = CC(C)(C)O*
REPORTED METRIC: Activity

COMPOUND	REPORTED METRIC	OBSERVED VALUE
CC(=O)O[C@@]12COC1C[C@H](O)[C@@]1(C)C(=O)[C@H](O)C3=C(C)[C@@H](OC(=O)[C@H](O)[C@@H](NC(=O)OC(C)(C)C)c4ccccc4)C[C@@](O)([C@@H](OC(=O)[C@@H](NC(=O)[C@@H]4CCCN4C(=O)CNC(=O)CN)C(C)C)C21)C3(C)C (stereo partly specified)	Activity	Not Active
CC(=O)O[C@@]12COC1C[C@H](O)[C@@]1(C)C(=O)[C@H](O)C3=C(C)[C@@H](OC(=O)[C@H](O)[C@@H](NC(=O)OC(C)(C)C)c4ccccc4)C[C@@](O)([C@@H](OC(=O)[C@@H]4CCCN4C(=O)CNC(=O)CN)C21)C3(C)C (stereo partly specified)	Activity	Not Active
CC(=O)O[C@@]12COC1C[C@H](O)[C@@]1(C)C(=O)[C@H](O)C3=C(C)[C@@H]4C[C@@](O)([C@@H](OC(=O)CNC(=O)CNC(=O)[C@@H]5CCCN5C(=O)[C@H](C(C)C)NC(=O)N[C@@H](c5ccccc5)[C@@H](O)C(=O)O4)C21)C3(C)C (stereo partly specified)	Activity	Non-toxic
CC(=O)O[C@@]12COC1C[C@H](O)[C@@]1(C)C(=O)[C@H](O)C3=C(C)[C@@H](OC(=O)[C@H](O)[C@@H](NC(=O)OC(C)(C)C)c4ccccc4)C[C@@](O)([C@@H](OC(=O)CNC(=O)CN)C21)C3(C)C (stereo partly specified)	Activity	Not Active
CC(=O)O[C@@]12COC1C[C@H](O)[C@@]1(C)C(=O)[C@H](O)C3=C(C)[C@@H]4C[C@@](O)([C@@H](OC(=O)c5cccc(c5)NC(=O)CNC(=O)CNC(=O)[C@@H]5CCCN5C(=O)[C@H](C(C)C)NC(=O)N[C@@H](c5ccccc5)[C@@H](O)C(=O)O4)C21)C3(C)C (stereo partly specified)	Activity	Non-toxic
CC(=O)O[C@@]12COC1C[C@H](O)[C@@]1(C)C(=O)[C@H](O)C3=C(C)[C@@H]4C[C@@](O)([C@@H](OC(=O)CNC(=O)C(CC(=O)OC(C)(C)C)NC(=O)CNC(=O)CNC(=O)[C@@H]5CCCN5C(=O)[C@H](C(C)C)NC(=O)N[C@@H](c5ccccc5)[C@@H](O)C(=O)O4)C21)C3(C)C (stereo partly specified) (VPGG[ξD](OtBu)G; linker N-C via X1)	Activity	Non-toxic
